# credit: patent US11566007B2

# Study System: KRAS G12S (Homo sapiens (Human), UniProt P01116+P62937, G12S)
# Sequence (P01116-2 other isoform, or with tags, fused parts or gaps G12S): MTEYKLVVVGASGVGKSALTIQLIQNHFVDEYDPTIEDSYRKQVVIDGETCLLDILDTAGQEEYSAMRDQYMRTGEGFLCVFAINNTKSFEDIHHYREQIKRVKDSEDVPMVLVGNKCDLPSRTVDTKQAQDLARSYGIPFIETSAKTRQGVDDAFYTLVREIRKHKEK
# Sequence (P62937 whole entry): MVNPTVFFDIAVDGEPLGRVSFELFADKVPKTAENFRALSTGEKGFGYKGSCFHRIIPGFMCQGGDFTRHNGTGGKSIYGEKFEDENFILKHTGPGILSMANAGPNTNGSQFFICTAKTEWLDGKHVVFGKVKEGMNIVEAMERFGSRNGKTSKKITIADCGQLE
# Run Description: Ras-Raf (BRAF RBD) disruption / FRET / MOA assay, KRAS G12S
# Type: biochemical
# Condition Notes: Ras-Raf disruption/FRET/MOA assay; class symbols; read-out: KRAS G12S FRET data IC50
Measurement Name: IC50

>  <Compound>
C=CC(=O)N1CC[C@H](C(=O)N(C)[C@H](C(=O)N[C@H]2Cc3cc(O)cc(c3)-c3ccc4c(c3)c(c(-c3ccncc3CN(C)C)n4CC)CC(C)(C)COC(=O)[C@@H]3CCCN(N3)C2=O)C(C)C)C1

>  <Observed>
100 to 1000 nM

$$$$
>  <Compound>
CCn1c(-c2cccnc2[C@H](C)OC)c2c3cc(ccc31)C1CCCN(C1)C[C@H](NC(=O)[C@@H](COC1CN(C(=O)C#CC(C)(C)N(C)C)C1)C(C)C)C(=O)N1CCC[C@H](N1)C(=O)OCC(C)(C)C2

>  <Observed>
> 10000 nM

$$$$
>  <Compound>
C=CC(=O)N1C[C@H](C(=O)N(C)[C@H](C(=O)N[C@H]2Cc3cccc(c3)-c3ccc4c(c3)c(c(-c3cccnc3[C@H](C)OC)n4CC)CC(C)(C)COC(=O)[C@@H]3CCCN(N3)C2=O)C(C)C)[C@@H](C)C1 (atropisomer, axis not shown)

>  <Observed>
1000 to 10000 nM

$$$$
>  <Compound>
CCn1c(-c2cccnc2[C@H](C)OC)c2c3cc(ccc31)-c1cccc(c1)C[C@H](NC(=O)[C@@H](COC1CN(C(=O)C#CC(C)(C)N(C)C3CC3)C1)C(C)C)C(=O)N1CCC[C@H](N1)C(=O)OCC(C)(C)C2 (atropisomer, axis not shown)

>  <Observed>
> 10000 nM

$$$$
>  <Compound>
C=CC(=O)N1CC[C@H](C(=O)N(C)[C@H](C(=O)N[C@H]2Cc3cc(CF)cc(c3)-c3ccc4c(c3)c(c(-c3cccnc3[C@H](C)OC)n4CC)CC(C)(C)COC(=O)[C@@H]3CCCN(N3)C2=O)C(C)C)C1 (atropisomer, axis not shown) [Example A505]

>  <Observed>
1000 to 10000 nM

$$$$
>  <Compound>
CCn1c(-c2cccnc2[C@H](C)OC)c2c3cc(ccc31)-c1csc(n1)C[C@H](NC(=O)[C@H](C(C)C)N(C)C(=O)N1CCC13CN(C(=O)/C=C/CN1CCOCC1)C3)C(=O)N1CCC[C@H](N1)C(=O)OCC(C)(C)C2 (atropisomer, axis not shown)

>  <Observed>
100 to 1000 nM

$$$$
>  <Compound>
CCn1c(-c2cccnc2[C@H](C)OC)c2c3cc(ccc31)-c1cc(O)cc(c1)C[C@H](NC(=O)[C@H](C(C)C)N1CC[C@]3(CCN(C(=O)/C=C/CN(C)C)C3)C1=O)C(=O)N1CCC[C@H](N1)C(=O)OCC(C)(C)C2 (atropisomer, axis not shown)

>  <Observed>
10 to 100 nM

$$$$
>  <Compound>
C=CC(=O)N(C)[C@@H]1CCCN(C(=O)N(C)[C@H](C(=O)N[C@H]2Cc3nc(cs3)-c3ccc4c(c3)c(c(-c3cccnc3[C@H](C)OC)n4CC)CC(C)(C)COC(=O)[C@@H]3CCCN(N3)C2=O)C(C)C)C1 (atropisomer, axis not shown)

>  <Observed>
10 to 100 nM

$$$$

* * *

# Study System: KRAS G12V (Homo sapiens (Human), UniProt P01116+P62937, G12V)
# Sequence (P01116-2 other isoform, or with tags, fused parts or gaps G12V): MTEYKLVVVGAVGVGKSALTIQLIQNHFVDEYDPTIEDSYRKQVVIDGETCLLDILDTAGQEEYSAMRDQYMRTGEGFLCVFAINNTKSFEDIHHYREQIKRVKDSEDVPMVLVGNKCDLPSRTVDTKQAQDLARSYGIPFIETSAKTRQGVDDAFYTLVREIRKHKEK
# Sequence (P62937 whole entry): as the sequence (P62937 whole entry) above
# Run Description: Ras-Raf (BRAF RBD) disruption / FRET / MOA assay, KRAS G12V
# Type: biochemical
# Condition Notes: read-out: IC50* KRAS G12V FRET data
Measurement Name: IC50

>  <Compound>
C=CC(=O)Nc1csc(C(=O)N(C)[C@H](C(=O)N[C@H]2Cc3cc(O)cc(c3)-c3ccc4c(c3)c(c(-c3cccnc3[C@H](C)OC)n4CC)CC(C)(C)COC(=O)[C@@H]3CCCN(N3)C2=O)C(C)C)n1 (atropisomer, axis not shown)

>  <Observed>
1000 to 10000 nM

$$$$
>  <Compound>
C=CC(=O)N1CC[C@H](C(=O)N(C)[C@H](C(=O)N[C@H]2Cc3cc(O)cc(c3)-c3ccc4c(c3)c(c(-c3ccc(CN(C)C)nc3COC)n4CC)CC(C)(C)COC(=O)[C@@H]3CCCN(N3)C2=O)C(C)C)C1

>  <Observed>
100 to 1000 nM

$$$$
>  <Compound>
C=CC(=O)N1CC2(CCN([C@H](C(=O)N[C@H]3Cc4cc(O)cc(c4)-c4ccc5c(c4)c(c(-c4cccnc4[C@H](C)OC)n5CC)CC(C)(C)COC(=O)[C@@H]4CCCN(N4)C3=O)C(C)C)C2=O)C1 (atropisomer, axis not shown)

>  <Observed>
100 to 1000 nM

$$$$
>  <Compound>
C=CC(=O)N1CC[C@H](C(=O)N(C)[C@H](C(=O)N[C@H]2Cc3cc(O)cc(c3)-c3ccc4c(c3)c(c(-c3ccccc3CCOC)n4CC)CC(C)(C)COC(=O)[C@]3(C)CCCN(N3)C2=O)C(C)C)C1

>  <Observed>
> 10000 nM

$$$$

* * *

# Study System: KRAS G12D (Homo sapiens (Human), UniProt P01116+P62937, G12D)
# Sequence (P01116-2 other isoform, or with tags, fused parts or gaps G12D, one chain of several): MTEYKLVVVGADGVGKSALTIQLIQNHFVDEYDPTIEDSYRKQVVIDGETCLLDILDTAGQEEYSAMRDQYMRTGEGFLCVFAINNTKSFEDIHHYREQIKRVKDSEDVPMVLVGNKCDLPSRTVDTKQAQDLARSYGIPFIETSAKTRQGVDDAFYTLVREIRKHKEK
# Run Description: Ras-Raf (BRAF RBD) disruption / FRET / MOA assay, KRAS G12D
# Format: biochemical
# Condition Notes: Ras-Raf disruption/FRET/MOA assay; class symbols; read-out: KRAS G12D FRET data IC50
pIC50: −log10 of the molar value.
Measurement Name: pIC50

>  <Compound>
CCn1c(-c2cccnc2COC)c2c3cc(ccc31)-c1cc(O)cc(c1)C[C@H](NC(=O)[C@@H](C(C)C)N(C)C(=O)[C@H]1C[C@@H](C)N(C(=O)C#CCN(C)C)C1)C(=O)N1CCC[C@H](N1)C(=O)OCC(C)(C)C2 [Example A165]

>  <Observed>
< 5.00

$$$$
>  <Compound>
C=CC(=O)N1C[C@@H](C)N(C(=O)N(C)[C@H](C(=O)N[C@H]2Cc3nc(cs3)-c3ccc4c(c3)c(c(-c3cccnc3[C@H](C)OC)n4CC)CC(C)(C)COC(=O)[C@@H]3CCCN(N3)C2=O)C(C)C)C[C@H]1C (atropisomer, axis not shown) [Example A406]

>  <Observed>
5.00 to 6.00

$$$$
>  <Compound>
CCn1c(-c2cccnc2COC)c2c3cc(ccc31)-c1cc(O)cc(c1)C[C@H](NC(=O)[C@H](C(C)C)N(C)C(=O)[C@H]1CCN(C(=O)C#CCN(C)C)C1)C(=O)N1CCC[C@H](N1)C(=O)OCC(C)(C)C2 [Example A096]

>  <Observed>
5.00 to 6.00

$$$$
>  <Compound>
CCn1c(-c2cccnc2COC)c2c3cc(ccc31)-c1cc(O)cc(c1)C[C@H](NC(=O)[C@H](C(C)C)N(C)C(=O)[C@H]1C[C@@H](C)N(C(=O)C#CCN(C)C)C1)C(=O)N1CCC[C@H](N1)C(=O)OCC(C)(C)C2 [Example A175]

>  <Observed>
5.00 to 6.00

$$$$

* * *

# Study System: KRAS G12D (Homo sapiens (Human), UniProt P01116+P62937, G12D)
# Run Description: Ras-Raf (BRAF RBD) disruption / FRET / MOA assay, KRAS G12D
# Assay type: biochemical
# Condition Notes: Ras-Raf disruption/FRET/MOA assay; class symbols; read-out: KRAS G12D FRET data IC50

>  <Compound>
C=CC(=O)N1CCN(C(=O)N(C)[C@H](C(=O)N[C@H]2Cc3cc(O)cc(c3)-c3ccc4c(c3)c(c(-c3cccnc3[C@H](C)OC)n4CC)CC(C)(C)COC(=O)[C@@H]3CCCN(N3)C2=O)C(C)C)CC1 [Example A338]

>  <IC50>
0.1 to 1 µM

$$$$
>  <Compound>
C=CC(=O)N(C)[C@H]1CN(C(=O)N(C)[C@H](C(=O)N[C@H]2Cc3nc(cs3)-c3ccc4c(c3)c(c(-c3cccnc3[C@H](C)OC)n4CC)CC(C)(C)COC(=O)[C@@H]3CCCN(N3)C2=O)C(C)C)C[C@@H]1F (atropisomer, axis not shown)

>  <IC50>
1 to 10 µM

$$$$
>  <Compound>
CCn1c(-c2cccnc2[C@H](C)OC)c2c3cc(ccc31)N1CCO[C@@H](C[C@H](NC(=O)[C@H](C(C)C)N(C)C(=O)C3(F)CCN(C(=O)/C=C/CN(C)C)CC3)C(=O)N3CCC[C@H](N3)C(=O)OCC(C)(C)C2)C1 (atropisomer, axis not shown)

>  <IC50>
1 to 10 µM

$$$$
>  <Compound>
C=CC(=O)N1CC[C@H](C(=O)N(C)[C@H](C(=O)NC2C[C@@H]3CN(CCO3)c3ccc4c(c3)c(c(-c3cccnc3COC)n4CC)CC(C)(C)COC(=O)[C@@H]3CCCN(N3)C2=O)C(C)C)C1 (stereo partly drawn)

>  <IC50>
> 10 µM

$$$$
>  <Compound>
C=CC(=O)N1CCC2(CC1)CCN(C(=O)N(C)[C@H](C(=O)N[C@H]1Cc3nc(cs3)-c3ccc4c(c3)c(c(-c3cccnc3[C@H](C)OC)n4CC)CC(C)(C)COC(=O)[C@@H]3CCCN(N3)C1=O)C(C)C)CC2 (atropisomer, axis not shown)

>  <IC50>
0.1 to 1 µM

$$$$
>  <Compound>
C=CC(=O)N1CC[C@]2(C1)OCN([C@H](C(=O)N[C@H]1Cc3cccc(c3)-c3ccc4c(c3)c(c(-c3cccnc3[C@H](C)OC)n4CC)CC(C)(C)COC(=O)[C@@H]3CCCN(N3)C1=O)C(C)C)C2=O (atropisomer, axis not shown)

>  <IC50>
> 10 µM

$$$$
>  <Compound>
C=CC(=O)N1C[C@H](C)[C@H](C(=O)N(C)[C@H](C(=O)N[C@H]2Cc3cc(O)cc(c3)-c3ccc4c(c3)c(c(-c3ccccc3CCOC)n4CC)CC(C)(C)COC(=O)[C@@H]3CCCN(N3)C2=O)C(C)C)C1

>  <IC50>
> 10 µM

$$$$
>  <Compound>
C=CC(=O)N1CC[C@H](C(=O)N(C)[C@H](C(=O)N[C@H]2C[C@H]3CN(CCO3)c3ccc4c(c3)c(c(-c3cccnc3COC)n4CC)CC(C)(C)COC(=O)[C@@H]3CCCN(N3)C2=O)C(C)C)C1

>  <IC50>
> 10 µM

$$$$
>  <Compound>
C=CC(=O)N1CCN(C(=O)N(C)[C@H](C(=O)N[C@H]2Cc3nc(cs3)-c3ccc4c(c3)c(c(-c3cccnc3[C@H](C)OC)n4CC)CC(C)(C)COC(=O)[C@@H]3CCCN(N3)C2=O)C(C)C)[C@H]2C[C@H]21 (atropisomer, axis not shown)

>  <IC50>
0.1 to 1 µM

$$$$
>  <Compound>
C=CC(=O)N1CC[C@H](C(=O)N(C)[C@H](C(=O)N[C@H]2Cc3cc(O)cc(c3)-c3ccc4c(c3)c(c(-c3cncc(CCN(C)C)c3)n4CC)CC(C)(C)COC(=O)[C@@H]3CCCN(N3)C2=O)C(C)C)C1

>  <IC50>
> 10 µM

$$$$
>  <Compound>
C=CC(=O)N1CC[C@H](C(=O)N(C)[C@H](C(=O)N[C@H]2Cc3cc(O)cc(c3)-c3ccc4c(c3)c(c(-c3ccc5c(c3)OCCN5C)n4CC)CC(C)(C)COC(=O)[C@@H]3CCCN(N3)C2=O)C(C)C)C1

>  <IC50>
> 10 µM

$$$$
>  <Compound>
CC#CC(=O)N1C[C@H](C)[C@H](C(=O)N(C)[C@H](C(=O)N[C@H]2Cc3cccc(c3)-c3ccc4c(c3)c(c(-c3cccnc3[C@H](C)OC)n4CC)CC(C)(C)COC(=O)[C@@H]3CCCN(N3)C2=O)C2CCCC2)C1 (atropisomer, axis not shown)

>  <IC50>
> 10 µM

$$$$
>  <Compound>
CCn1c(-c2cccnc2[C@H](C)OC)c2c3cc(ccc31)-c1cccc(c1)C[C@H](NC(=O)[C@@H](COC1CN(C(=O)C#CC(C)(C)O)C1)C(C)C)C(=O)N1CCC[C@H](N1)C(=O)OCC(C)(C)C2 (atropisomer, axis not shown)

>  <IC50>
> 10 µM

$$$$
>  <Compound>
CCn1c(-c2cccnc2[C@H](C)OC)c2c3cc(ccc31)-c1csc(n1)C[C@H](NC(=O)C[C@H](C)OC1CN(C(=O)C#CC(C)(C)N(C)C)C1)C(=O)N1CCC[C@H](N1)C(=O)OCC(C)(C)C2 (atropisomer, axis not shown)

>  <IC50>
> 10 µM

$$$$
>  <Compound>
CCn1c(-c2cccnc2[C@H](C)OC)c2c3cc(ccc31)-c1cccc(c1)C[C@H](NC(=O)[C@@H](CO[C@@H]1CCN(C(=O)C#CC(C)(C)N(C)C)C1)C(C)C)C(=O)N1CCC[C@H](N1)C(=O)OCC(C)(C)C2 (atropisomer, axis not shown)

>  <IC50>
> 10 µM

$$$$
